Catalogue of IC50 values
target: UniProtKB Q72547; experiment: Inhibition of reconstituted HIV1 RNase H using RNA/DNA duplex substrate by fluorescence assay
Metric name: IC50

INSERT INTO assay_data (compound_smiles, tested_system, metric_name, endpoint_result) VALUES
  ('O=C1Cc2cc(Cc3ccc(F)cc3)ccc2C(=O)N1O', 'UniProtKB Q72547', 'IC50', '0.5 µM'),
  ('O=C1Cc2cc(Cc3ccc(-c4cccs4)cc3)ccc2C(=O)N1O', 'UniProtKB Q72547', 'IC50', '0.7 µM'),
  ('O=C1Cc2cc(Cc3ccc(-c4ccncc4)cc3)ccc2C(=O)N1O', 'UniProtKB Q72547', 'IC50', '0.8 µM'),
  ('O=C1Cc2cc(Cc3ccc(-c4ccccc4)cc3)ccc2C(=O)N1O', 'UniProtKB Q72547', 'IC50', '0.5 µM'),
  ('O=C1Cc2cc(Cc3ccc(C4CC4)cc3)ccc2C(=O)N1O', 'UniProtKB Q72547', 'IC50', '0.9 µM'),
  ('O=C1Cc2cc(Cc3ccccc3)ccc2C(=O)N1O', 'UniProtKB Q72547', 'IC50', '1.1 µM'),
  ('NC(=O)c1ccc(-c2ccc(Cc3ccc4c(c3)CC(=O)N(O)C4=O)cc2)cc1', 'UniProtKB Q72547', 'IC50', '1.5 µM'),
  ('COc1ccc(-c2ccc(Cc3ccc4c(c3)CC(=O)N(O)C4=O)cc2)cc1F', 'UniProtKB Q72547', 'IC50', '0.7 µM'),
  ('NS(=O)(=O)c1ccc(-c2ccc(Cc3ccc4c(c3)CC(=O)N(O)C4=O)cc2)cc1', 'UniProtKB Q72547', 'IC50', '0.4 µM'),
  ('O=C1Cc2cc(Cc3ccc(C(F)(F)F)cc3)ccc2C(=O)N1O', 'UniProtKB Q72547', 'IC50', '1.2 µM'),
  ('O=C1Cc2cc(Cc3ccc(-c4ccc(F)cc4)cc3)ccc2C(=O)N1O', 'UniProtKB Q72547', 'IC50', '2.8 µM'),
  ('O=C1Cc2cc(Cc3ccc(-c4ccc(F)cc4F)cc3)ccc2C(=O)N1O', 'UniProtKB Q72547', 'IC50', '0.7 µM'),
  ('N#Cc1ccc(-c2ccc(Cc3ccc4c(c3)CC(=O)N(O)C4=O)cc2)cc1', 'UniProtKB Q72547', 'IC50', '0.5 µM');
